Here, each record is paired with measured TGI data.
# System: 786-0 renal
# EXPERIMENT: NCI tumour cell line growth inhibition, 48 h

Recorded result, O=C(Nc1ccc(F)cc1)c1ccc(NC2=C(Cl)C(=O)N(Cc3ccccc3)C2=O)cc1 , TGI: 22.9 µM

Recorded result, CN(C)c1ccc([O-])cc1.CN(C)c1ccc([O-])cc1.CN(C)c1ccc([O-])cc1.CN(C)c1ccc([O-])cc1.[Ti+4] , TGI: > 100 µM

Recorded result, O=C1C=CC=CC2CC=C[C@@H](O)C12 (some centres not stated) , TGI: 33.8 µM

Recorded result, CN(C)CCNC(=O)c1ccc(NCCCN(C)CCCNc2ccc3c(=O)n(CCN(C)C)c(=O)n4c5ccccc5c(=O)c2c34)c2c(=O)c3ccccc3[nH]c12 , TGI: 0.11 µM

Recorded result, COC(=O)C(C(=O)C(=O)Nc1ccc(C(F)(F)F)cc1[N+](=O)[O-])c1csc(-n2nc(-c3ccccc3)cc2-c2ccccc2)n1 (configuration not stated) , TGI: > 100 µM

New cases:
Recorded result, Oc1cc(O)c(Oc2cccc(O)c2O)c(O)c1 , TGI: > 100 µM

Recorded result, CC(=O)N[C@@H]1C(O)CN2C(=O)C(=O)O[C@H](C(O)CO)[C@@H]12 (some centres not stated) , TGI: > 100 µM

Recorded result, COc1ccc(/C=c2\[nH]c3nc(=O)c(N4CCOCC4)c(N)n3c2=O)cc1 , TGI: > 100 µM

Recorded result, O=C(/C=C/C12c3ccccc3C(c3ccccc31)C1C(=O)N(c3ccccc3)C(=O)C12)c1ccccc1 (configuration not stated) , TGI: > 100 µM

Recorded result, O=C(CCN1CCCC1)Nc1ccc2sc3ccccc3c(=O)c2n1 , TGI: 17.5 µM

Recorded result, COc1cc2nc(-c3ccc4ccccc4c3)[nH]c(=O)c2cc1OC , TGI: > 100 µM

Recorded result, CC(=O)OCC1OC(n2c3c(c(-c4cccc5ccccc45)c(C#N)c2=S)CCCC3)C(OC(C)=O)C(OC(C)=O)C1OC(C)=O (configuration not stated) , TGI: > 100 µM

Recorded result, CC1OC2=N[C@@H]1C(=O)N[C@@H](C(C)C)C1=N[C@H](C(=O)N[C@@H](C(C)C)C3=N[C@H](C(=O)N[C@@H](C(C)C)C4=N[C@H](C(=O)N[C@H]2C(C)C)C(C)O4)C(C)O3)C(C)O1 (some centres not stated) , TGI: > 10 µM

Recorded result, CN(C)/N=C/c1cn(C)c(=O)n(C)c1=O , TGI: > 100 µM

Recorded result, O=C(Nc1cccc([N+](=O)[O-])c1)C(=O)C(C(=O)c1ccccc1-c1ccccc1)C1OC(=O)c2ccccc21 (configuration not stated) , TGI: 38.9 µM

Recorded result, O=C(/C=C/c1ccccc1)CC1OC(=O)c2ccccc21 (configuration not stated) , TGI: > 100 µM

Recorded result, Nc1ncnc2c1ncn2C1CCC(COS(N)(=O)=O)C1 (configuration not stated) , TGI: > 100 µM

Recorded result, O=CC(O)C(O)C(O)C(O)C(=O)NCCCCCCCCCCCCNC(=O)C(O)C(O)C(O)C(O)C=O (configuration not stated) , TGI: > 100 µM

Recorded result, O=C([CH-]C(=O)c1ccccc1)c1ccccc1.O=C([CH-]C(=O)c1ccccc1)c1ccccc1.O=C([CH-]C(=O)c1ccccc1)c1ccccc1.[Nd+3].[OH3+] , TGI: 18.5 µM

Recorded result, COc1cccc(CC(C)NCC(O)c2ccc(O)c(O)c2)c1 (configuration not stated) , TGI: > 100 µM

Recorded result, CC[N+]1(C)CCC(O)(/C=C/c2ccc(OC)cc2)C(C(=O)/C=C/c2ccc(OC)cc2)C1 (configuration not stated) , TGI: > 25.8 µM

Recorded result, CCOC(=O)C1(Br)C(c2ccccc2)NC(=O)NC1(C)Br (configuration not stated) , TGI: > 100 µM

Recorded result, COc1nc2c(c(=O)n1C)N[C@H]1[C@H](OC(C)=O)[C@@H](OC(C)=O)CO[C@H]1N2 , TGI: > 100 µM

Recorded result, COc1ccc(Nc2ncc(Br)c(NCCCNC(=O)C3CCC3)n2)cc1 , TGI: 47.1 µM

Recorded result, COc1ccc(-c2nc3sc(-c4ccc(Cl)cc4)cn3n2)cc1 , TGI: 2.41 µM

Recorded result, O=[N+]([O-])c1ccc2nc(-c3ccccn3)c(-c3ccccn3)nc2c1 , TGI: > 100 µM

Recorded result, FC(F)(F)c1cc(-c2nnc3n2N=C(N2CCCC2)CS3)cc(C(F)(F)F)c1 , TGI: > 50 µM

Recorded result, Nc1nc2c(c(=O)[nH]1)NC(CO)CN2 (configuration not stated) , TGI: > 100 µM

Recorded result, Cc1ccc(C(=O)N/N=C(\N=Nc2cccc(Cl)c2)c2ccc(N(CCC#N)CCC#N)cc2C)cc1 , TGI: > 100 µM

Recorded result, CCOC(=O)C1=C(C(=O)c2ccc(C)cc2)C(c2cccc([N+](=O)[O-])c2)C(C(=O)c2ccc(C)cc2)=C(C(=O)OCC)N1 , TGI: 32.9 µM

Recorded result, CCCn1c(SC)nc(COC(=O)NC)c1COC(=O)NC , TGI: > 100 µM

Recorded result, Clc1ccc(Cc2nc3ccccc3s2)c(Cl)c1 , TGI: 27.8 µM

Recorded result, Cc1ccc(-c2cc(-c3ccco3)c(C#N)c(=O)[nH]2)cc1 , TGI: > 100 µM

====

# System: KM12 colon
# EXPERIMENT: NCI tumour cell line growth inhibition, 48 h
READOUT_LABEL: TGI

# count of solved cases: 5
Recorded result, Clc1ccc(Cc2nc3ccccc3nc2-c2cccc(Br)c2)cc1 , TGI: 33.7 µM

Recorded result, C(=C\c1cccc(/C=C/c2ccccn2)n1)/c1ccccn1 , TGI: > 100 µM

Recorded result, OCC1OC(n2cnc3cncnc32)C(O)C1O (stereo unspecified) , TGI: 6 µM

Recorded result, CC(C)=CCC/C(C)=C/CC/C(C)=C/Cc1c(O)c2ccccc2oc1=O , TGI: > 100 µM

Recorded result, CC1CCP(=O)(c2ccccc2)c2ccccc21 (stereo unspecified) , TGI: > 100 µM

Let us examine a further case.
Recorded result, COc1nc(N(C)C)nc2c1n(C)c[n+]2C , TGI: > 100 µM

====

# System: M14 melanoma
# EXPERIMENT: NCI tumour cell line growth inhibition, 48 h
READOUT_LABEL: TGI

Recorded result, O=C1c2ccc([N+](=O)[O-])cc2-c2c1c1ccccc1c(=O)n2CCCNCCCNCCCn1c2c(c3ccc([N+](=O)[O-])cc3c1=O)C(=O)c1ccccc1-2 , TGI: 33.9 µM

Recorded result, Cc1cc(/C=C\c2ccc3ccccc3[n+]2C)c(O)c2ncccc12 , TGI: 1.11 µM

Recorded result, O=C1C(c2c[nH]c3ccccc23)=C(c2c[nH]c3ccccc23)C(=O)N1O , TGI: > 25 µM

Recorded result, N#CC(C#N)=C1C(C#N)=C(N)NC12OCCO2 , TGI: > 100 µM

New cases:
Recorded result, N=c1oc2ccc3ccccc3c2cc1C(N)=O , TGI: > 100 µM

Recorded result, COC[C@@H](N=CN1CCc2cc(OC)c(OC)cc2[C@@H]1C)C(C)(C)C , TGI: > 100 µM

Recorded result, O=C(Nc1cccc([N+](=O)[O-])c1)C(=O)C(C(=O)c1ccccc1-c1ccccc1)C1OC(=O)c2ccccc21 (stereo not given) , TGI: 41.1 µM

Recorded result, Nc1cccc2c1C(=O)c1cccc(N)c1C2=O , TGI: > 100 µM

Recorded result, COC(=O)C(C(=O)C(=O)Nc1ccc(C(F)(F)F)cc1[N+](=O)[O-])c1csc(-n2nc(-c3ccccc3)cc2-c2ccccc2)n1 (stereo not given) , TGI: > 100 µM

Recorded result, CN(C)c1nc(N(C)C)nc(N(C)C23CC4CC(CC(C4)C2)C3)n1 , TGI: > 100 µM

Recorded result, CCOC(=O)c1c(CN2CCNCC2)nc2ccccc2c1-c1ccccc1 , TGI: 28.2 µM

Recorded result, COc1nc2c(c(=O)n1C)N[C@H]1[C@H](OC(C)=O)[C@@H](OC(C)=O)CO[C@H]1N2 , TGI: > 100 µM

Recorded result, COc1ccc(-c2oc3c(OC)c(OC)c(OC)c(O)c3c(=O)c2OC)cc1OC , TGI: > 100 µM

Recorded result, CCOC(=O)c1c(N2CCCC2)ncn(-c2ccccc2)c1=S , TGI: > 100 µM

Recorded result, C=CCN(/C=C1/C(=O)O[C@H](COC)[C@@]2(C)C1=C(O)C(=O)C1=C2[C@H](OC(C)=O)C[C@]2(C)C(=O)CC[C@@H]12)CC=C , TGI: > 10 µM

meta.source: PubChem BioAssay (NCI)
